Entry source: patent US9884874B2

- METHOD DESCRIPTION: Animal pharmacokinetics in ICR mice
- Assay type: in vivo
- RUN CONDITIONS: ICR, in vivo; mouse, PO, 10 mg/kg
READOUT TYPE: AUC (µM·h)
A number alone suffices; assume µM·h.

Given item Cc1nnc2n1-c1ccc(-c3cnn(C)c3)cc1C(c1ccc(Cl)cc1)=N[C@H]2COS(C)(=O)=O [Compound 11] , the value recorded as its AUC is 11.7

Lab note: measured AUC of COc1ccc2c(c1)C(c1ccc(Cl)cc1)=N[C@@H](COS(C)(=O)=O)c1nnc(C)n1-2 [Compound 1] was 76

Record summary for COc1ccc2c(c1)C(c1ccc(Cl)cc1)=N[C@@H](COS(N)(=O)=O)c1nnc(C)n1-2 [Compound 8] : reported AUC = 31.5

Recorded AUC (molecule COc1ccc2c(c1)C(c1ccc(C#N)cc1)=N[C@@H](COS(C)(=O)=O)c1nnc(C)n1-2 [Compound 7] ): 8.19

molecule CCS(=O)(=O)OC[C@@H]1N=C(c2ccc(Cl)cc2)c2cc(OC)ccc2-n2c(C)nnc21 [Compound 2] , AUC observed: 66

---

- METHOD DESCRIPTION: Animal pharmacokinetics in ICR mice
- Format: in vivo
- RUN CONDITIONS: ICR, plasma; mouse, IV, 10 mg/kg
READOUT TYPE: clearance (mL/min/kg)
Numbers only here, please. The scale is mL/min/kg.

GET /value?item= `Cc1sc2c(c1C)C(c1ccc(Cl)cc1)=N[C@@H](COS(C)(=O)=O)c1nnc(C)n1-2` &field=clearance returns 13.5

---

- METHOD DESCRIPTION: Pharmacokinetics in Sprague Dawley rats
- Type: in vivo, Sprague Dawley (SD) rats
- RUN CONDITIONS: plasma, rat, IV, 10 mg/kg
READOUT TYPE: AUC (µM·h)
# unit: µM·h | format: bare number

AUC reading for COc1ccc2c(c1)C(c1ccc(Cl)cc1)=N[C@@H](COS(C)(=O)=O)c1nnc(C)n1-2 [Compound 1] : 15.4

---

- METHOD DESCRIPTION: Pharmacokinetics in Sprague Dawley rats
- Type: in vivo, Sprague Dawley (SD) rats
- RUN CONDITIONS: plasma, rat, PO, 10 mg/kg
READOUT TYPE: bioavailability (%)
State just the number; it will be interpreted in %.

Form field bioavailability, entry COc1ccc2c(c1)C(c1ccc(Cl)cc1)=N[C@@H](COS(C)(=O)=O)c1nnc(C)n1-2 [Compound 1] : 88.6

---

- METHOD DESCRIPTION: Animal pharmacokinetics in ICR mice
- Type: in vivo
- RUN CONDITIONS: ICR, in vivo; mouse, PO, 10 mg/kg
Rule: MET for bioavailability not less than 60%, NOT MET for anything less.

Exam item: decide whether the reported bioavailability for CCS(=O)(=O)OC[C@@H]1N=C(c2ccc(Cl)cc2)c2cc(OC)ccc2-n2c(C)nnc21 [Compound 2] is at least 60%.
MET

I'd appreciate it if you could say whether COc1ccc2c(c1)C(c1ccc(Cl)cc1)=N[C@@H](COS(N)(=O)=O)c1nnc(C)n1-2 [Compound 8] has bioavailability at least equal to 60%.
MET

Is the recorded value of bioavailability equal to or greater than 60% for this compound? COc1ccc2c(c1)C(c1ccc(Cl)cc1)=N[C@@H](COS(C)(=O)=O)c1nnc(C)n1-2 [Compound 1]
MET

Quick check, bioavailability >= 60%? COc1ccc2c(c1)C(c1ccc(C#N)cc1)=N[C@@H](COS(C)(=O)=O)c1nnc(C)n1-2 [Compound 7]
NOT MET

---

- TESTED SYSTEM: human BRD4 bromodomain 1 (Homo sapiens (Human), UniProt O60885)
- METHOD DESCRIPTION: Bromodomain binding assay (BRD4 Alpha-screen)
- RUN CONDITIONS: acetylated histone H4 peptide
Mark label 1 for IC50 under 200 nM, label 0 if at or over.

Hello, I'm reviewing records and need to know if IC50 of `Cc1nnc2n1-c1ccc(C(=O)NCCO)cc1C(c1ccc(Cl)cc1)=N[C@H]2COS(C)(=O)=O` is below 200 nM. Could you check?
label 0

Problem: For the molecule `COc1ccc2c(c1)C(c1ccc(Cl)cc1)=N[C@@H](COS(=O)(=O)C1CC1)c1nnc(C)n1-2` , is IC50 under 200 nM?
label 0

Is IC50 strictly under 200 nM for the entry `Cc1nnc2n1-c1ccc(-c3cnn(C)c3)cc1C(c1ccc(Cl)cc1)=N[C@H]2COS(C)(=O)=O` ?
label 1

In the record for `CNS(=O)(=O)OC[C@@H]1N=C(c2ccc(Cl)cc2)c2cc(OC)ccc2-n2c(C)nnc21` , is IC50 less than 200 nM?
label 0

Lab note: confirm whether the reported IC50 for this molecule is below 200 nM, equality not counting. molecule: `COc1ccc2c(c1)C(c1ccc(C#N)cc1)=N[C@@H](COS(C)(=O)=O)c1nnc(C)n1-2`
label 0

Consider `Cc1sc2c(c1C)C(c1ccc(Cl)cc1)=N[C@@H](COS(C)(=O)=O)c1nnc(C)n1-2` . Does its IC50 lie strictly below 200 nM?
label 1

Does this molecule meet the criterion IC50 < 200 nM? `CNS(=O)(=O)OC[C@@H]1N=C(c2ccc(Cl)cc2)c2c(sc(C)c2C)-n2c(C)nnc21`
label 1

---

- METHOD DESCRIPTION: Animal pharmacokinetics in ICR mice
- Format: in vivo
- RUN CONDITIONS: ICR, in vivo; mouse, IV, 30 mg/kg
READOUT TYPE: AUC (µM·h)
Give the number; µM·h is assumed, so skip it.

Record `COc1ccc2c(c1)C(c1ccc(Cl)cc1)=N[C@@H](COS(C)(=O)=O)c1nnc(C)n1-2` , field AUC: 302

---

- METHOD DESCRIPTION: Animal pharmacokinetics in ICR mice
- Assay type: in vivo
- RUN CONDITIONS: ICR, plasma; mouse, PO, 10 mg/kg
READOUT TYPE: AUC
Answer by giving the amount and then stating its unit.

Value of measured AUC for the entry Cc1sc2c(c1C)C(c1ccc(Cl)cc1)=N[C@@H](COS(C)(=O)=O)c1nnc(C)n1-2 [Compound 15] : 31 µM·h

---

- METHOD DESCRIPTION: Human liver microsomal stability/clearance
- Type: in vitro ADME
- RUN CONDITIONS: human liver microsomes; first value of Human/Mouse cell; read-out: Liver microsomal clearance (Human)
We label by threshold. Values of microsomal CLint at 1 µM strictly beneath 9 µL/min/mg are Satisfied. Values of 9 µL/min/mg and up are Not satisfied.

Record `COc1ccc2c(c1)C(c1ccc(Cl)cc1)=N[C@@H](COS(C)(=O)=O)c1nnc(C)n1-2` : is its microsomal CLint at 1 µM strictly below 9 µL/min/mg?
Satisfied

Is 9 µL/min/mg strictly greater than the compound's reported microsomal CLint at 1 µM? compound: `Cc1sc2c(c1C)C(c1ccc(Cl)cc1)=N[C@@H](COS(C)(=O)=O)c1nnc(C)n1-2`
Not satisfied

Identify whether the compound `CCS(=O)(=O)OC[C@@H]1N=C(c2ccc(Cl)cc2)c2cc(OC)ccc2-n2c(C)nnc21` records microsomal CLint at 1 µM below 9 µL/min/mg.
Satisfied

Problem: For the compound `COc1ccc2c(c1)C(c1ccc(Cl)cc1)=N[C@@H](COS(=O)(=O)N(C)C)c1nnc(C)n1-2` , is microsomal CLint at 1 µM under 9 µL/min/mg?
Not satisfied

Is 9 µL/min/mg strictly greater than the compound's reported microsomal CLint at 1 µM? compound: `CCCS(=O)(=O)OC[C@@H]1N=C(c2ccc(Cl)cc2)c2cc(OC)ccc2-n2c(C)nnc21`
Not satisfied

Take the compound `COc1ccc2c(c1)C(c1ccc(Cl)cc1)=N[C@@H](COS(=O)(=O)C1CC1)c1nnc(C)n1-2` and say whether its microsomal CLint at 1 µM is less than 9 µL/min/mg.
Satisfied

Answer whether the compound `CNS(=O)(=O)OC[C@@H]1N=C(c2ccc(Cl)cc2)c2cc(OC)ccc2-n2c(C)nnc21` has microsomal CLint at 1 µM strictly less than 9 µL/min/mg
Not satisfied

A record lists `Cc1nnc2n1-c1ccc(C(=O)NCCO)cc1C(c1ccc(Cl)cc1)=N[C@H]2COS(C)(=O)=O` . Is its microsomal CLint at 1 µM below 9 µL/min/mg?
Satisfied

Determine if `Cc1nnc2n1-c1ccc(-c3cnn(C)c3)cc1C(c1ccc(Cl)cc1)=N[C@H]2COS(C)(=O)=O` shows microsomal CLint at 1 µM strictly lower than 9 µL/min/mg.
Satisfied

---

- METHOD DESCRIPTION: Animal pharmacokinetics in ICR mice
- Assay type: in vivo
- RUN CONDITIONS: ICR, in vivo; mouse, PO, 10 mg/kg
READOUT TYPE: MRT (h)
State the answer as a number, implicitly in h.

// recorded MRT for COc1ccc2c(c1)C(c1ccc(Cl)cc1)=N[C@@H](COS(C)(=O)=O)c1nnc(C)n1-2 [Compound 1] : 6.2

Entry CCS(=O)(=O)OC[C@@H]1N=C(c2ccc(Cl)cc2)c2cc(OC)ccc2-n2c(C)nnc21 [Compound 2] ; MRT = 4.1
